test system: pMEK; assay: pMEK AlphaLISA (MEK1 pS218/222), HCT116 cells, EGF stimulated; type: cell-based; settings: Homo sapiens, HCT-116, 2 h compound, EGF 30 ng/ml 15 min
MEASURED PARAMETER: IC50

Completed entries (count: 5):
Indicate its recorded IC50; the compound in question is Cc1c(Cc2ccnc([S+](C)[O-])c2F)cncc1Nc1ccc(Br)cc1F (centres unmarked)
< 10 nM

Indicate its recorded IC50; the compound in question is `CNS(=O)(=O)Nc1nccc(Cc2cncc(Nc3nc4c(cc3F)OCCO4)c2C)c1F`
< 10 nM

Indicate its recorded IC50; the compound in question is `CNS(=O)(=O)Nc1nccc(Cc2cncc(Nc3ccc(C(F)(F)F)cc3F)c2C)c1F`
< 10 nM

Indicate its recorded IC50; the compound in question is `Cc1c(Cc2ccnc(S(C)(=O)=O)c2F)cncc1Nc1ccc(F)cc1F`
> 1000 nM

Indicate its recorded IC50; the compound in question is `CNS(=O)(=O)Nc1ccc(Cc2cncc(Nc3ccc(Br)cc3F)c2C)cc1`
< 10 nM

Continuing:
Indicate its recorded IC50; the compound in question is `CNS(=O)(=O)Nc1nccc(Cc2cncc(Nc3cc4c(cc3F)OCCO4)c2C)c1F`
< 10 nM

Indicate its recorded IC50; the compound in question is `CNS(=O)(=O)Nc1ccc(Cc2cncc(Nc3ccc(Cl)cc3F)c2C)cc1OC`
> 1000 nM

Indicate its recorded IC50; the compound in question is `CCc1ccc(Nc2cncc(Cc3ccnc(NS(=O)(=O)NC)c3F)c2C)c(F)c1`
< 10 nM

====

system: pMEK; assay: pMEK AlphaLISA (MEK1 pS218/222), HCT116 cells, EGF stimulated; assay type: cell-based; settings: Homo sapiens, HCT-116, 2 h compound, EGF 30 ng/ml 15 min
Measured IC50 values are reported for all entries that follow.

Completed entries (count: 4):
Indicate its recorded IC50; the molecule in question is Cc1c(Cc2ccc(S(C)(=O)=O)cc2F)cncc1Nc1ccc(Cl)cc1F [Example 20]
> 1000 nM

Indicate its recorded IC50; the molecule in question is CC(=O)Nc1nccc(Cc2cncc(Nc3ccc(Br)cc3F)c2C)c1F [Example 3]
10 to 100 nM

Indicate its recorded IC50; the molecule in question is CNS(=O)(=O)Nc1nccc(Cc2cncc(OCc3ncccc3F)c2C)c1F [Example 34]
> 1000 nM

Indicate its recorded IC50; the molecule in question is CNS(=O)(=O)Nc1nccc(Cc2cncc(Nc3ccc(Cl)cc3F)n2)c1F [Example 21]
10 to 100 nM

Continuing:
Indicate its recorded IC50; the molecule in question is CNS(=O)(=O)Nc1nccc(Cc2cncc(Nc3ccc(C#N)cc3F)c2C)c1F [Example 11]
< 10 nM

Indicate its recorded IC50; the molecule in question is CNS(=O)(=O)Nc1nccc(Cc2cncc(Nc3ccc(Cl)cc3F)c2)c1F [Example 18]
< 10 nM

Indicate its recorded IC50; the molecule in question is CNS(=O)(=O)Nc1nccc(Cc2cncc(Oc3ccc(Cl)cc3F)n2)c1F [Example 40]
> 1000 nM

====

test system: IPC298 cells; assay: IPC298 Cell Titer Glow assay (CTG); conditions: read-out: CTG IC50 (nM) Cell Line: IPC298.2; IPC298 cells, 72 hours
MEASURED PARAMETER: IC50

Indicate its recorded IC50; the compound in question is `CNS(=O)(=O)Nc1ccc(Cc2cncc(Oc3ncc(Cl)cc3F)c2C)cn1`
> 1000 nM
